MEASUREMENT_NOTES: recombinant UMI read abundance after kanamycin selection (control-corrected) (log10(CPM+1)); higher = more efficient recombination; extreme values may be limits of the assay; sequences stand for … in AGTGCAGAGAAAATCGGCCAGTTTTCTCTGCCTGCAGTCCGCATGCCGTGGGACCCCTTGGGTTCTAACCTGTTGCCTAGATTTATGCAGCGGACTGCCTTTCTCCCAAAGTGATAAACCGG…AGGTTGGTTTCACT; site = the 11-nt donor;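 also: IS621 bridge recombinase in Escherichia coli cells against a fixed T5 target plasmid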
// thresholds for recombinant UMI read abundance (log10) classes: bin 1 = under 0.01, bin 2 = from 0.01 up to 1, bin 3 = 1 and over

The examples below pair each entry with its known result.
INSERT INTO results (primary_sequence, class_label) VALUES
  ('TATTTGGCATGGACCGGTTTTCCCGGTAATCCGTATTTGTA (site TATTTGGCTCA)', 'bin 2'),
  ('TGGCCGGCATGGACCGGTTTTCCCGGTAATCCGTATTTGCC (site TGGCCGGCTGG)', 'bin 3'),
  ('TGTGGAACATGGACCGGTTTTCCCGGTAATCCGTATTTGTT (site AGTGGAACTAA)', 'bin 2');

Lookup: Class? Entry: CCCGCGTCATGGACCGGTTTTCCCGGTAATCCGTATTTGTC (site CCCGCGTCTGA)
Found: bin 2

Lookup: Class? Entry: TACTAGTCATGGACCGGTTTTCCCGGTAATCCGTATTTGGA (site TACTAGTCTTC)
Found: bin 3

Lookup: Class? Entry: ACTCGTGCATGGACCGGTTTTCCCGGTAATCCGTATTTGAG (site ACTCGTGCTCT)
Found: bin 3

Lookup: Class? Entry: AGTTCCCCATGGACCGGTTTTCCCGGTAATCCGTATTTGTA (site TGTTCCCCTTA)
Found: bin 2

Lookup: Class? Entry: CTCGACACATGGACCGGTTTTCCCGGTAATCCGTATTTGGC (site CTCGACACTGC)
Found: bin 3

Lookup: Class? Entry: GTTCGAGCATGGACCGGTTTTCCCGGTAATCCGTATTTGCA (site GTTCGCGCTTG)
Found: bin 1

Lookup: Class? Entry: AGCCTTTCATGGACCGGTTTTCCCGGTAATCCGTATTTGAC (site AGTCTTTCTGT)
Found: bin 1
